# Test: Nuclear factor erythroid 2-related factor 2/antioxidant responsive element (Nrf2/ARE) small molecule agonists: qHTS cell viability counter screen in human keratinocytes (AID 1919968); note: nearly all actives have a fitted effect of over 55% in size
# Particulars: KeratinoSens HaCaT ARE cells viability, CellTiter-Fluor, 24 h; series mostly up to 92.4 µM
Inconclusive results are not listed. Activity calls are given as the source filed them. Calls come from the whole dose curve; as a rule, active = well fitted cell-killing curve with a large enough effect in the repeat runs; inconclusive = weak or mixed curves, or effect the other way; inactive = flat fitted curve, though single readings scatter.
Classes used: yes (active), no (inactive)

Compound: CCCNC(C)C(=O)Nc1c(C)csc1C(=O)OC (stereo not given)
Class Name: no
//
Compound: COCCCOCCCOC
Class Name: no
//
Compound: Nc1ccc(F)cc1F
Class Name: no
//
Compound: COC(=O)/C=C/C(C)=C\C=C\C(C)=C\C=C\C=C(C)\C=C\C=C(C)\C=C\C(=O)O
Class Name: no
//
Compound: Cc1nc2sccn2c(=O)c1CCN1CCC(=C(c2ccc(F)cc2)c2ccc(F)cc2)CC1
Class Name: yes
//
Compound: CC1=C(C(=O)O)N2C(=O)[C@@H](NC(=O)[C@H](N)c3ccc(O)cc3)[C@H]2SC1
Class Name: no
//
Compound: CCN(CC)CCOC(=O)C(c1ccccc1)C1CCCCC1 (stereo not given)
Class Name: no
//
Compound: CCCC(CCC)(C(=O)OCC)C(=O)OCC
Class Name: no
//
Compound: CC(C)(c1ccccc1)c1ccccc1
Class Name: no
//
Compound: O=C(/C=C/c1ccccc1)OCCc1ccccc1
Class Name: no
//
Compound: CC(=O)OCC(CCn1cnc2cnc(N)nc21)COC(C)=O
Class Name: no
//
Compound: O=C(O)Cn1cnnn1
Class Name: no
//
Compound: Cc1cc2cc3c(C)cc(=O)oc3c(C)c2o1
Class Name: no
//
Compound: O=C1c2ccccc2C(=O)c2cc(S(=O)(=O)O)ccc21
Class Name: no
//
Compound: CN(C)C(C)(C)CO
Class Name: no
//
Compound: C[Si](C)(C)C
Class Name: no
//
Compound: S=C([S-])NCCNC(=S)[S-].[Mn+2]
Class Name: no
//
Compound: CCCCCC/C=C/C=O
Class Name: no
//
Compound: CC(C)C[C@H](NC(=O)CNC(=O)[C@H](Cc1ccc(O)cc1)NC(=O)[C@H](CO)NC(=O)[C@H](Cc1c[nH]c2ccccc12)NC(=O)[C@H](Cc1cnc[nH]1)NC(=O)[C@@H]1CCC(=O)N1)C(=O)N[C@@H](CCCN=C(N)N)C(=O)N1CCC[C@H]1C(=O)NCC(N)=O (stereo in doubt)
Class Name: no
//
Compound: C/C=C/C=N/NC(=O)c1ccncc1
Class Name: no
//
Compound: CCC(C)OC(=O)N1CCCCC1CCO (stereo not given)
Class Name: no
//
Compound: CC1(CN2CCC(n3c(=O)[nH]c4ccccc43)CC2)OCc2ccccc2-n2cccc21 (stereo not given)
Class Name: yes
//
Compound: C[C@H]1C[C@H]2[C@@H]3CCC4=CC(=O)C=C[C@]4(C)[C@@]3(Cl)[C@@H](O)C[C@]2(C)[C@@]1(O)C(=O)CO
Class Name: no
//
Compound: COc1ccc(/C=C/C(=O)c2ccc(OC)cc2OC)cc1
Class Name: no
//
Compound: Cc1cc(C)c(N)cc1C
Class Name: no
//
Compound: C=C(C)C(=O)OC
Class Name: no
//
Compound: CCN(CC)CCNC(=O)c1c(C)[nH]c(/C=C2\C(=O)Nc3ccc(F)cc32)c1C
Class Name: yes
//
Compound: CS(=O)(=O)CCNCc1ccc(-c2ccc3ncnc(Nc4ccc(OCc5cccc(F)c5)c(Cl)c4)c3c2)o1
Class Name: yes
//
Compound: Cc1ccc(S(=O)(=O)C(I)I)cc1
Class Name: yes
//
Compound: O=S(=O)(O)SSS(=O)(=O)O
Class Name: no

* * *

# System Name: Muscarinic acetylcholine receptor M1 (Homo sapiens)
# Test: Cholinergic receptor muscarinic 1 (CHRM1) small molecule antagonists, cell-based qHTS assay (AID 1963588); note: nearly all actives have a fitted effect of over 40% in size
# Particulars: CHRM1-CHO antagonist mode, calcium flux fluorescence; series mostly up to 61.5 µM
Records with an inconclusive call do not appear. Activity calls are given as the source filed them. Calls come from the whole dose curve.
Labels: active, inactive

Molecule: CN1CCCC(CC2c3ccccc3Sc3ccccc32)C1 (configuration not stated)
Class Name: active
//
Molecule: CC(C)c1ccc2cc(C(C)C)ccc2c1
Class Name: inactive
//
Molecule: C=CCN1C[C@H](C(=O)N(CCCN(C)C)C(=O)NCC)C[C@@H]2c3cccc4[nH]cc(c34)C[C@H]21
Class Name: inactive
//
Molecule: Cc1cc(O)c(Cl)c(C)c1Cl
Class Name: inactive
//
Molecule: CCCC(CC)c1ccccc1 (configuration not stated)
Class Name: inactive
//
Molecule: CN1CCN(c2ccccc2/C=C2\SCCN(c3ccc(Cl)c(Cl)c3)C2=O)CC1
Class Name: active
//
Molecule: COc1cccc(N)c1
Class Name: inactive
//
Molecule: Cc1ccc(O)c(C(C)(C)C)c1
Class Name: inactive
//
Molecule: Cc1cccc(NC(=S)N(C)C)c1
Class Name: inactive
//
Molecule: Nc1ccc2c3c(cccc13)-c1ccccc1-2
Class Name: inactive
//
Molecule: CC(=O)Oc1cccc(C)c1
Class Name: inactive
//
Molecule: CC1CCCC1
Class Name: inactive
//
Molecule: C=Cc1ccc(OC(C)=O)cc1
Class Name: inactive
//
Molecule: CCCCCCCC/C=C/CCCOC(C)=O
Class Name: inactive
//
Molecule: CCCC(C)CC (configuration not stated)
Class Name: inactive
//
Molecule: O=C(O)c1nc(Cl)c(Cl)c(Cl)c1Cl
Class Name: inactive
//
Molecule: CC(C)[C@H]1CC[C@H](C)C[C@@H]1O
Class Name: inactive

* * *

# Test: Nuclear factor erythroid 2-related factor 2/antioxidant responsive element (Nrf2/ARE) small molecule agonists: qHTS cell viability counter screen in human keratinocytes (AID 1919968); note: nearly all actives have a fitted effect of over 55% in size
# Particulars: KeratinoSens HaCaT ARE cells viability, CellTiter-Fluor, 24 h; series mostly up to 92.4 µM
Inconclusive results are not listed. Activity calls are given as the source filed them. Calls follow the shape of the dose curve; as a rule, active = well fitted cell-killing curve with a large enough effect in the repeat runs; inconclusive = weak or mixed curves, or effect the other way; inactive = flat fitted curve, though single readings scatter.
Outcome codes: yes = active, no = inactive

Chemical Structure: O=S(=O)(Oc1ccc(Cl)cc1)c1ccccc1
Class Name: no
--
Chemical Structure: C=C(C)C(=O)OCc1ccccc1
Class Name: no
--
Chemical Structure: CCCCCC
Class Name: no
--
Chemical Structure: CC(C)C(C)(C)C(C)(C)C(C)(C)S
Class Name: no
--
Chemical Structure: C=CCCC(=O)O
Class Name: no
--
Chemical Structure: CC(=O)CC(=O)Nc1ccc(S(=O)(=O)O)cc1
Class Name: no
--
Chemical Structure: O=C1CCc2ccc(OCCCCN3CCN(c4cccc(Cl)c4Cl)CC3)cc2N1
Class Name: yes
--
Chemical Structure: CCCCCCCCCCOC(=O)c1ccccc1C(=O)OCCCCCCCC
Class Name: no
--
Chemical Structure: CCCCCOC(=O)COc1cc(N2C(=O)C3=C(CCCC3)C2=O)c(F)cc1Cl
Class Name: no

* * *

# Test: Nuclear factor erythroid 2-related factor 2/antioxidant responsive element (Nrf2/ARE) small molecule agonists: luciferase reporter gene qHTS assay in human keratinocytes (AID 1919969); note: nearly all actives have a fitted effect of over 35% in size; note: potency is the fitted concentration of half-maximal effect
# Particulars: KeratinoSens HaCaT ARE-luciferase, luminescence, 24 h; series mostly up to 92.4 µM
Records with an inconclusive call do not appear. Active and inactive are the calls of the source. Calls follow the shape of the full dose curve.

Compound: O=C(CCCN1CCN(c2ccc(F)cc2)CC1)NC1c2ccccc2CSc2ccccc21 (stereo not drawn)
Potency: inactive
--
Compound: CCC[C@@H]1C[C@@H](C(=O)N[C@@H]([C@H]2O[C@H](SC)[C@H](O)[C@@H](O)[C@H]2O)[C@@H](C)O)N(C)C1
Potency: inactive
--
Compound: CNC(=S)NN
Potency: 6.11 µM (active)
--
Compound: c1ccccc1
Potency: inactive
--
Compound: Nc1nc(F)nc2c1ncn2[C@@H]1O[C@H](CO)[C@@H](O)[C@@H]1O
Potency: inactive
--
Compound: O=C(Oc1ccccc1)c1ccc2ccccc2c1O
Potency: 8.63 µM (active)
--
Compound: COc1ccc(-c2nc3ccc(C4=NNC(=O)CC4C)cc3[nH]2)cc1 (stereo not drawn)
Potency: inactive
--
Compound: CC/C(C)=N\O[Si](C)(O/N=C(\C)CC)O/N=C(\C)CC
Potency: inactive
--
Compound: Nc1ccc(N)c2ccccc12
Potency: 7.69 µM (active)
--
Compound: CCCCOC(=O)c1ccccc1C(=O)OCC(CC)CCCC (stereo not drawn)
Potency: 43.3 µM (active)
--
Compound: COCC(=O)O[C@]1(CCN(C)CCCc2nc3ccccc3[nH]2)CCc2cc(F)ccc2[C@@H]1C(C)C
Potency: inactive
--
Compound: NC(CCC(=O)O)C(=O)O (stereo not drawn)
Potency: inactive
--
Compound: CC1=Nc2ccccc2C1(C)C
Potency: 43.3 µM (active)
--
Compound: Cc1cc(NC(=O)C(=O)O)cc(C)c1Oc1ccc(O)c2c1CCC2
Potency: inactive
--
Compound: C#C[C@]1(OC(C)=O)CC[C@H]2[C@@H]3CCC4=C/C(=N/O)CC[C@@H]4[C@H]3CC[C@@]21CC
Potency: inactive
--
Compound: CC1=CC=C(C(C)C)CC1
Potency: inactive
--
Compound: CNC(=O)C(c1ccccc1)c1ccccc1
Potency: inactive
--
Compound: CN(C)c1ccc(N=Nc2ccccc2C(=O)O)cc1
Potency: 61.1 µM (active)
--
Compound: Cc1ccc(O)c(N)c1
Potency: 24.4 µM (active)
--
Compound: COc1ccc2cc(S(=O)(=O)N[C@H](CC(=O)N[C@H](Cc3ccc(CN4[C@H](C)CCC[C@@H]4C)cc3)C(=O)N(C)C(C)C)c3ccc4c(c3)OCO4)ccc2c1
Potency: inactive
--
Compound: Clc1nc2ccccc2nc1Cl
Potency: 55.1 µM (active)
--
Compound: O=C(Cl)c1ccc([N+](=O)[O-])cc1
Potency: inactive
--
Compound: N#Cc1ccccc1C#N
Potency: inactive
